Answer each item with its documented protein stability index.
B1: ZNF649 (parent)
chain: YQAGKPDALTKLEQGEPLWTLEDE

variants of: B1; experiment: protein stability index of a GFP-peptide fusion (GPS, HEK-293T) (PSI 1-6); higher = more stable; details: c terminus: a fixed tail appended;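 also: lentivirally expressed fusions sorted by FACS into six bins by GFP to DsRed ratio, PSI derived from sequencing read proportions per bin multiplied by bin number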

State, in one line, measured protein stability index of YQAGKPDALTKLDQGEPLWTLEDE [E13D] 4.18

State, in one line, measured protein stability index of YQAGKPSALTKLEQGEPLWTLEDE [D7S] 3.99

State, in one line, measured protein stability index of YQAGKPDALIKLEQGEPLWTLEDE [T10I] 4.02

State, in one line, measured protein stability index of YQATKPDALTKLEQGEPLWTLEDE [G4T] 3.97

State, in one line, measured protein stability index of YQAGKPDALTSLEQGEPLWTLEDE [K11S] 4.19

State, in one line, measured protein stability index of YQAGKPDALTKLEQGEPCWTLEDE [L18C] 4.91

State, in one line, measured protein stability index of YQAGKPAALTKLEQGEPLWTLEDE [D7A] 3.4

State, in one line, measured protein stability index of YQAGTPDALTKLEQGEPLWTLEDE [K5T] 4.6

State, in one line, measured protein stability index of YQAPKPDALTKLEQGEPLWTLEDE [G4P] 4.63

State, in one line, measured protein stability index of YQAGKPDALTKLEQGDPLWTLEDE [E16D] 4.94

State, in one line, measured protein stability index of YQAGKPDALTKLEQGEPLWCLEDE [T20C] 2.62

State, in one line, measured protein stability index of YQAGKPDILTKLEQGEPLWTLEDE [A8I] 4.08

State, in one line, measured protein stability index of YQNGKPDALTKLEQGEPLWTLEDE [A3N] 4.71

State, in one line, measured protein stability index of YQAGKPDALTKLEQGHPLWTLEDE [E16H] 3.32

State, in one line, measured protein stability index of SQAGKPDALTKLEQGEPLWTLEDE [Y1S] 5.54

State, in one line, measured protein stability index of YQAGKPDKLTKLEQGEPLWTLEDE [A8K] 4.85

State, in one line, measured protein stability index of YQAGKPDWLTKLEQGEPLWTLEDE [A8W] 1.18

State, in one line, measured protein stability index of YQAGKPDALTKLGQGEPLWTLEDE [E13G] 3.31

State, in one line, measured protein stability index of YQAGKPDALTKLEQGEPLITLEDE [W19I] 5.21

State, in one line, measured protein stability index of YQAGKPDALTKLEQGEPLWTAEDE [L21A] 4.47

State, in one line, measured protein stability index of YQAGKPDRLTKLEQGEPLWTLEDE [A8R] 4.65

State, in one line, measured protein stability index of YQAGKPDALTNLEQGEPLWTLEDE [K11N] 4.51

State, in one line, measured protein stability index of YQAGKPDALTKLEQGEPLWTLHDE [E22H] 3.3

State, in one line, measured protein stability index of YQAGKPDALTKCEQGEPLWTLEDE [L12C] 5.11

State, in one line, measured protein stability index of YQAGKPDALTKLEQGEPLWTLESE [D23S] 4.11

State, in one line, measured protein stability index of YQACKPDALTKLEQGEPLWTLEDE [G4C] 4.47

State, in one line, measured protein stability index of YQAGKPDALTKLEQGEPLFTLEDE [W19F] 4.86

State, in one line, measured protein stability index of YQAGKPDALTKLEQGEPLWTLEDY [E24Y] 3.29

State, in one line, measured protein stability index of YQAGKPDALTKLEQGEPLWTYEDE [L21Y] 4.95

State, in one line, measured protein stability index of YQAGKPDALTKLEQGEPLWVLEDE [T20V] 4.41

State, in one line, measured protein stability index of YQAGKPDALTKLEQYEPLWTLEDE [G15Y] 3.52

State, in one line, measured protein stability index of YQAGKIDALTKLEQGEPLWTLEDE [P6I] 4.32

State, in one line, measured protein stability index of YQAGKPPALTKLEQGEPLWTLEDE [D7P] 4.16

State, in one line, measured protein stability index of YQAGKPDALTKLEQGEPLWTLEYE [D23Y] 2.14

State, in one line, measured protein stability index of PQAGKPDALTKLEQGEPLWTLEDE [Y1P] 4.5

State, in one line, measured protein stability index of YQAGSPDALTKLEQGEPLWTLEDE [K5S] 4.48

State, in one line, measured protein stability index of YQAGKPDALTKLEQGELLWTLEDE [P17L] 3.95

State, in one line, measured protein stability index of YQAGKPRALTKLEQGEPLWTLEDE [D7R] 3.65

State, in one line, measured protein stability index of MQAGKPDALTKLEQGEPLWTLEDE [Y1M] 4.75

State, in one line, measured protein stability index of YQAGKPDALTKYEQGEPLWTLEDE [L12Y] 4.68

State, in one line, measured protein stability index of YQAGKPDALTKLMQGEPLWTLEDE [E13M] 3.45

State, in one line, measured protein stability index of YQAGKPDALTKLWQGEPLWTLEDE [E13W] 1.98

State, in one line, measured protein stability index of YQAGKPDALTKLEQGEPLWTLEDD [E24D] 4.71

State, in one line, measured protein stability index of YQAGKPCALTKLEQGEPLWTLEDE [D7C] 2.37

State, in one line, measured protein stability index of YQAGKPDALTKNEQGEPLWTLEDE [L12N] 4.78

State, in one line, measured protein stability index of YQAGKPEALTKLEQGEPLWTLEDE [D7E] 4.77

State, in one line, measured protein stability index of YQAGKPDALTKLEQGGPLWTLEDE [E16G] 4.06

State, in one line, measured protein stability index of YQAGKPDALTKLEQGEPLWWLEDE [T20W] 2.67

State, in one line, measured protein stability index of YFAGKPDALTKLEQGEPLWTLEDE [Q2F] 4.6

State, in one line, measured protein stability index of YQADKPDALTKLEQGEPLWTLEDE [G4D] 5.05

State, in one line, measured protein stability index of YQAGKPDAFTKLEQGEPLWTLEDE [L9F] 4.01

State, in one line, measured protein stability index of YQAGKPDALTKLKQGEPLWTLEDE [E13K] 3.34

State, in one line, measured protein stability index of YQAGKPDALTKLEIGEPLWTLEDE [Q14I] 4.44

State, in one line, measured protein stability index of YQAGKPDALRKLEQGEPLWTLEDE [T10R] 3.97

State, in one line, measured protein stability index of YQAGKPDAQTKLEQGEPLWTLEDE [L9Q] 4.67

State, in one line, measured protein stability index of YQAGKPDALTKLAQGEPLWTLEDE [E13A] 4.2

State, in one line, measured protein stability index of YQAGKPDALTKLEQGNPLWTLEDE [E16N] 3.73

State, in one line, measured protein stability index of YQAGKPDALVKLEQGEPLWTLEDE [T10V] 4.62

State, in one line, measured protein stability index of YQAGKPDALTRLEQGEPLWTLEDE [K11R] 4.14

State, in one line, measured protein stability index of YQTGKPDALTKLEQGEPLWTLEDE [A3T] 4.54

State, in one line, measured protein stability index of YQAGKPDALTKLEQGEPLWTLEPE [D23P] 3.78

State, in one line, measured protein stability index of YQAGKPDAWTKLEQGEPLWTLEDE [L9W] 1.86

State, in one line, measured protein stability index of YQAIKPDALTKLEQGEPLWTLEDE [G4I] 4.22

State, in one line, measured protein stability index of YQAGKPDALTKLEQGEPFWTLEDE [L18F] 3.54

State, in one line, measured protein stability index of YQAGKPDALTKLEQGEPLWTLEDK [E24K] 4.41

State, in one line, measured protein stability index of YQQGKPDALTKLEQGEPLWTLEDE [A3Q] 4.75

State, in one line, measured protein stability index of YQAGKPDALTALEQGEPLWTLEDE [K11A] 4.66

State, in one line, measured protein stability index of YQAGKPDALTKLHQGEPLWTLEDE [E13H] 4.25

State, in one line, measured protein stability index of YQAGKPDALTKLEQGEPSWTLEDE [L18S] 5.32

State, in one line, measured protein stability index of YQAGKPDALTKLQQGEPLWTLEDE [E13Q] 2.87

State, in one line, measured protein stability index of YQAGKPDALTKLEQGEPLWTLEDR [E24R] 4.48

State, in one line, measured protein stability index of YQAGKPDALTKLEQGEPLWTLYDE [E22Y] 2.62

State, in one line, measured protein stability index of YQAGKPDALTKLEQGEPLWTSEDE [L21S] 4.52

State, in one line, measured protein stability index of YQAGKPDALTKLEQPEPLWTLEDE [G15P] 3.89

State, in one line, measured protein stability index of YQAGKPDALTKLEQGEPLWTLCDE [E22C] 3.45

State, in one line, measured protein stability index of YQAGKPDALTKLEQGEPWWTLEDE [L18W] 3.59

State, in one line, measured protein stability index of YQAGKPDALTKLEQGEPPWTLEDE [L18P] 5.35

State, in one line, measured protein stability index of YQAGKPDALTKHEQGEPLWTLEDE [L12H] 4.73

State, in one line, measured protein stability index of YQALKPDALTKLEQGEPLWTLEDE [G4L] 4.17

State, in one line, measured protein stability index of AQAGKPDALTKLEQGEPLWTLEDE [Y1A] 4.88

State, in one line, measured protein stability index of IQAGKPDALTKLEQGEPLWTLEDE [Y1I] 5.01

State, in one line, measured protein stability index of YQAGKPDALTKLEQGECLWTLEDE [P17C] 3.46

State, in one line, measured protein stability index of YQAGKPDALTKLEQGYPLWTLEDE [E16Y] 2.62

State, in one line, measured protein stability index of YPAGKPDALTKLEQGEPLWTLEDE [Q2P] 4.8

State, in one line, measured protein stability index of YQAGKPDALTKLEQGWPLWTLEDE [E16W] 2.49

State, in one line, measured protein stability index of YQAGKPDALTKLENGEPLWTLEDE [Q14N] 4.07

State, in one line, measured protein stability index of YQAGKPDALTKLEQGEPLWTLEVE [D23V] 3.81

State, in one line, measured protein stability index of YQAGKPDALTKLEQGERLWTLEDE [P17R] 3.94

State, in one line, measured protein stability index of YQAGKPDALTKLEQGEPLWTLEDL [E24L] 3.53

State, in one line, measured protein stability index of YQAGKPDALTKLEQQEPLWTLEDE [G15Q] 4.31

State, in one line, measured protein stability index of YQAGKPDALTKLEQGEPLWTVEDE [L21V] 2.31
